Test system: 935938-334-R-J1-PDC spheroids with HUVEC/MSC, viability;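 note: compound exposure lasted seven days before viability was read; percent of vehicle DMSO treated spheroid viability so 100% = untreated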
Assay: Anticancer human tumor 935938-334-R-J1-PDC patient-derived small intestine adenocarcinoma cell line growth inhibition [PI3K]
Details: second compound 0.316 µM; first compound 0.949 µM; active compounds read low
Readout kind: viability, T/C (%)
Write the answer as a number in %, unit excluded.

Compound	Readout kind	Reported measurement
Cn1cnc2c(F)c(Nc3ccc(Br)cc3Cl)c(C(=O)NOCCO)cc21 + Cc1nc(NC(=O)N2CCCC2C(N)=O)sc1-c1ccnc(C(C)(C)C(F)(F)F)c1	viability, T/C	18.6
Cn1cnc2c(F)c(Nc3ccc(Br)cc3Cl)c(C(=O)NOCCO)cc21 + COc1c(OCCCN2CCOCC2)ccc2c3n(c(=NC(=O)c4cnc(N)nc4)nc12)CCN3	viability, T/C	18.9
Cn1cnc2c(F)c(Nc3ccc(Br)cc3Cl)c(C(=O)NOCCO)cc21 + CC(Nc1ncnc2nc[nH]c12)c1cc2cccc(Cl)c2c(=O)n1-c1ccccc1	viability, T/C	22.3

Now take the following compound into account.
The compound listed as Cn1cnc2c(F)c(Nc3ccc(Br)cc3Cl)c(C(=O)NOCCO)cc21 + CC(Nc1ccc2c(c1)OCCn1cc(N3C(=O)OCC3C(F)F)nc1-2)C(N)=O has a reported viability, T/C of 16.8
